# Target or system: Proteinase-activated receptor 2 (Homo sapiens, UniProt P55085)
# Sequence (P55085 whole entry): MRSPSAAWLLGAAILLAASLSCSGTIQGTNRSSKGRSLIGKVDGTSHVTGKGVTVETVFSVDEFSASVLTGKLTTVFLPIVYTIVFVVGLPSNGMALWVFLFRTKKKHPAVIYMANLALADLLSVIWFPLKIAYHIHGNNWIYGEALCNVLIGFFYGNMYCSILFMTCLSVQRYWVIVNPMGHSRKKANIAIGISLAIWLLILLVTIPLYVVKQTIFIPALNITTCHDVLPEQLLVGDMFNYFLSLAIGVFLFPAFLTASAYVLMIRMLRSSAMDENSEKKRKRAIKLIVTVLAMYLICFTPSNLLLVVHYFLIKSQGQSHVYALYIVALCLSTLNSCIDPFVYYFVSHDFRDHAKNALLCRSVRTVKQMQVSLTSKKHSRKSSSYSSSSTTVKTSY
# Measurement notes: Agonist activity at PAR2 in human EA.hy926 cells assessed as stimulation of calcium mobilization by Fluo-4-AM dye-based FLIPR assay
# Format: functional, cell-based, EA.hy 926
pEC50: −log10 of the molar value. Where a SMILES comes first, the peptide text is derived from it. [ ]: non-standard residue; d: D form. The star is where a group is joined. X1 = COCc1cn(CCOCCOCCOCCOCCOCCOCCN*)nn1; Orn = NCCC[C@H](N)C(=O)O; 2Furoyl = O=C(c1ccco1)*
Measurement kind: pEC50

[P] CC[C@H](C)[C@H](NC(=O)[C@H](CC(C)C)NC(=O)c1ccco1)C(=O)NCC(=O)N[C@@H](CCCNC(=N)N)C(=O)N[C@@H](CC(C)C)C(=O)N[C@@H](CCCN)C(=O)NCCOCCOCCOCCOCCOCCOCCn1cc(COC)nn1 (2Furoyl-LIGRL[Orn]-X1)
[Q] COc1ccnc(NCCCOc2ccc(C[C@@H](CC(=O)O)NC(=O)c3ccc(OCc4cn(CCOCCOCCOCCOCCOCCOCCNC(=O)[C@@H](NC(=O)[C@H](CC5CCCCC5)NC(=O)c5ccno5)C5CCCCC5)nn4)cc3)cc2)c1
Request: Form: Entry with minimum pEC50 (choose one): P / Q Write the label of whichever entry you select.
Result: Q
(Q: 5.92, P: 7.14)

Reference for the values: ChEMBL document CHEMBL4699422
